target: FLAG-tagged Vanin-1 (AA 22-493, T26I) (Homo sapiens (Human), UniProt O95497, T26I); experiment: Vanin-1 enzymatic assay; settings: formation of pantothenic acid from D-pantethine (3 μM), RapidFire MS; geometric mean in case of multiple measurements; read-out: VNN 1 IC50
Sequence (O95497 22-493 T26I): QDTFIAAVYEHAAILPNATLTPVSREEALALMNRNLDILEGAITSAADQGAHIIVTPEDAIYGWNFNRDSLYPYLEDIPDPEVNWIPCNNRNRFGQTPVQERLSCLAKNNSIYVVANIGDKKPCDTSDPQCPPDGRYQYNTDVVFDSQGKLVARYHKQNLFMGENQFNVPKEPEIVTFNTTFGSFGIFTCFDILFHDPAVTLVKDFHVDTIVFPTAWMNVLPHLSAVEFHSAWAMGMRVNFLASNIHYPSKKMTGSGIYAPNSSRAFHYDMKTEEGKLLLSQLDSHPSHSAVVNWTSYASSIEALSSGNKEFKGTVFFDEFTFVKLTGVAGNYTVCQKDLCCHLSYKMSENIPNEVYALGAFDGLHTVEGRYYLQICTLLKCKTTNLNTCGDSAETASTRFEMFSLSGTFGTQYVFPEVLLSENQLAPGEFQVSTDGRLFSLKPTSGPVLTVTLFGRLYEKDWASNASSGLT
Form field: IC50 (one value per entry).
The reply should read as a number followed by its unit.

Example compounds with recorded IC50:
- compound: "CC1(C)CCCc2cc(C(=O)N3CC[C@H](N4CCOC4=O)C3)cnc2N1 [Example 12.7]"
  IC50: "1.4 nM"
- compound: "CC(=O)N(C)[C@H]1CCN(C(=O)c2cnc3c(c2)C[C@@](C)(c2cccc(Cl)c2)N3)C1 [Example 7.3]"
  IC50: "18.9 nM"
- compound: "C[C@]1(c2ccc(F)cc2)Cc2cc(C(=O)N3CCC4(CCOCC4)C3)cnc2N1 [Example 5.1]"
  IC50: "0.4 nM"

Note down IC50 recorded for CC1(C)CCCc2cc(C(=O)N3CC[C@H](N4CCCC4=O)C3)cnc2N1 [Example 12.5]
1.5 nM

Note down IC50 recorded for C[C@]1(c2ccc(Cl)cc2)Cc2cc(C(=O)N3CC[C@H](N4CCCC4=O)C3)cnc2N1 [Example 8.3]
0.1 nM

Note down IC50 recorded for CC1(C)Cc2cc(C(=O)N3CC[C@H](N4CCOC4=O)C3)cnc2N1 [Example 1.3]
1.6 nM

Note down IC50 recorded for CC(=O)N(C)[C@H]1CCN(C(=O)c2cnc3c(c2)C[C@@](C)(c2cccc(F)c2)N3)C1 [Example 4.2]
1.7 nM
